hemolysin alpha from Staphylococcus aureus (Staphylococcus aureus) measurements of IC50, listed per entry.

Request: Output reported IC50 of the compound Cc1cc2[nH]c(=O)c(=O)[nH]c2cc1S(=O)(=O)Nc1ccc(-c2ccccc2F)c(Cl)c1 on hemolysin alpha from Staphylococcus aureus (Staphylococcus aureus).
Response: < 30 nM

Request: Please tell me the measured IC50 for COc1ccccc1-c1c(C)cc(NS(=O)(=O)c2cc3[nH]c(=O)c(=O)[nH]c3cc2C)cc1C ; system: hemolysin alpha from Staphylococcus aureus (Staphylococcus aureus).
Response: 100 to 1000 nM

Request: Return reported IC50 for target or system hemolysin alpha from Staphylococcus aureus (Staphylococcus aureus), item Cc1cc2[nH]c(=O)c(=O)[nH]c2cc1S(=O)(=O)Nc1cc(C)c(-c2cc[nH]c2)c(C)c1 .
Response: 100 to 1000 nM

Request: Give IC50 only, for Cc1cc2[nH]c(=O)c(=O)[nH]c2cc1S(=O)(=O)Nc1cc(C)c(-c2ccnn2C)c(C)c1 , using hemolysin alpha from Staphylococcus aureus (Staphylococcus aureus) data.
Response: 1000 to 3500 nM

* * *

assay-system: S. aureus Alpha hemolysin (Staphylococcus aureus)
Sequence (P09616 27-319 limits assumed): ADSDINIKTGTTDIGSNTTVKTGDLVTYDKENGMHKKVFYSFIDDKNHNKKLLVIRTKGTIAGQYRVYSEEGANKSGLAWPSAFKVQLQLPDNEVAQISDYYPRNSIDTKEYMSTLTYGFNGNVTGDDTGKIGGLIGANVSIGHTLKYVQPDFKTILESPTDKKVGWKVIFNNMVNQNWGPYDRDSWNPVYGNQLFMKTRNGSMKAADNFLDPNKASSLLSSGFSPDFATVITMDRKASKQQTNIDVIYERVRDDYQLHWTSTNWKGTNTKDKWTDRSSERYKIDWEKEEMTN
experiment-notes: cell-based
condition-parameters: A549-LDH Assay activity
pEC50: −log10 of the molar value.
Catalogue of pEC50 readings, one per entry.

Worked cases, answers included:
> print(dat)
                                smiles.repr      measured
1  O=c1[nH]c2cc(Br)c(S(=O)(=O)Nc3ccc(OC(F)(F)F)cc3)cc2[nH]c1=O  7.00 to 7.52
2  C#Cc1cc(NS(=O)(=O)c2cc3[nH]c(=O)c(=O)[nH]c3cc2C)ccc1-c1ccc2cc[nH]c2c1        > 7.52
3  O=c1[nH]c2cc(Cl)c(S(=O)(=O)Nc3ccc(-c4ccccc4F)c(Cl)c3)cc2[nH]c1=O  6.00 to 7.00
4  COc1ccccc1-c1ccc(NS(=O)(=O)c2cc3[nH]c(=O)c(=O)[nH]c3cc2C)cc1Cl  6.00 to 7.00
5  Cc1cc2[nH]c(=O)c(=O)[nH]c2cc1S(=O)(=O)Nc1ccc(C2COC2)cc1  6.00 to 7.00

Request: Provide pEC50, tested on S. aureus Alpha hemolysin (Staphylococcus aureus), for Cc1cc2[nH]c(=O)c(=O)[nH]c2cc1S(=O)(=O)Nc1ccc(-c2ccc(OC(C)C)nc2)c(Cl)c1 .
Response: 6.00 to 7.00

Request: With S. aureus Alpha hemolysin (Staphylococcus aureus) as the test system, provide measured pEC50 for this compound: CCCc1ccc(NS(=O)(=O)c2cc3[nH]c(=O)c(=O)[nH]c3cc2C)cc1
Response: 7.00 to 7.52

* * *

assay-system: hemolysin alpha from Staphylococcus aureus (Staphylococcus aureus, UniProt P09616)
Sequence (P09616 27-319 limits assumed): as above
experiment-notes: cell-based
pEC50: −log10 of the molar value.
endpoint-name: pEC50

Answered cases to consult:
> print(dat)
                                   compound      measured
1  Cc1cc2[nH]c(=O)c(=O)[nH]c2cc1S(=O)(=O)Nc1ccc(SC(F)(F)F)cc1  6.00 to 7.00
2  Cc1cc2[nH]c(=O)c(=O)[nH]c2cc1S(=O)(=O)Nc1ccc(-c2cc(F)ccc2F)c(Cl)c1  7.00 to 7.52
3  Cc1cc2[nH]c(=O)c(=O)[nH]c2cc1S(=O)(=O)Nc1ccc(-c2ccc3c(c2)OCCO3)c(Cl)c1        > 7.52

Request: Consider the compound Cc1cc2[nH]c(=O)c(=O)[nH]c2cc1S(=O)(=O)Nc1ccc(-c2ccc(F)c(C(N)=O)c2)c(Cl)c1 . State its measured pEC50.
Response: > 7.52

Request: Please look at this compound and report its pEC50: COc1cc2[nH]c(=O)c(=O)[nH]c2cc1S(=O)(=O)Nc1ccc(OC(F)(F)F)cc1
Response: 6.00 to 7.00

Request: State, in one line, measured pEC50 of O=c1[nH]c2ccc(S(=O)(=O)Nc3ccc(OC(F)(F)F)cc3)cc2[nH]c1=O [drawing 469 (R^2 = H), reference compound]
Response: 6.54

Request: Please list pEC50 recorded for the compound Cc1cc2[nH]c(=O)c(=O)[nH]c2cc1S(=O)(=O)Nc1ccc(-c2ccc3c(c2)CCNC3=O)c(Cl)c1
Response: 6.00 to 7.00

Request: Provide one value: measured pEC50 of Cc1cc2[nH]c(=O)c(=O)[nH]c2cc1S(=O)(=O)Nc1ccc(-c2ccc(C#N)cc2)c(Br)c1
Response: > 7.52

Request: Note down pEC50 recorded for Cc1cc2[nH]c(=O)c(=O)[nH]c2cc1S(=O)(=O)Nc1cnc(-n2nccn2)c(Cl)c1
Response: 5.46 to 6.00

Request: Indicate its recorded pEC50; the compound in question is Cc1nc2cc(NS(=O)(=O)c3cc4[nH]c(=O)c(=O)[nH]c4cc3C)ccc2s1
Response: 5.46 to 6.00

Request: Please give measured pEC50 of the following entry: COc1ccc(-c2ccc(NS(=O)(=O)c3cc4[nH]c(=O)c(=O)[nH]c4cc3C)cc2Cl)cc1C(N)=O
Response: 5.46 to 6.00

Request: Give the measured pEC50 for Cc1cc2[nH]c(=O)c(=O)[nH]c2cc1S(=O)(=O)Nc1ccc2c(c1)OCCO2
Response: 6.00 to 7.00

Request: # return recorded pEC50 for input Cc1cc2[nH]c(=O)c(=O)[nH]c2cc1S(=O)(=O)Nc1ccc(-c2ccc3c(c2)N(C)CCO3)c(Cl)c1
Response: 7.00 to 7.52

Request: Input Cc1cc2ccc(-c3ccc(NS(=O)(=O)c4cc5[nH]c(=O)c(=O)[nH]c5cc4C)cc3C(F)(F)F)cc2[nH]1 , output reported pEC50.
Response: > 7.52

* * *

assay-system: UniProt:P09616
experiment-notes: cell-based
condition-parameters: A549-LDH Assay activity
endpoint-name: EC50

Request: Specify reported EC50 for the molecule shown: Cc1cc2[nH]c(=O)c(=O)[nH]c2cc1S(=O)(=O)Nc1ccc(-c2ccn3ccnc3c2)c(Cl)c1 [Compound 336]
Response: 0.1 to 1 µM

* * *

Form: system (hemolysin alpha from Staphylococcus aureus (Staphylococcus aureus, UniProt P09616)), quantity (IC50), values below.

Request: Fill in IC50 for Cc1cccc(-c2c(C)cc(NS(=O)(=O)c3cc4[nH]c(=O)c(=O)[nH]c4cc3C)cc2C)c1 tested with hemolysin alpha from Staphylococcus aureus (Staphylococcus aureus, UniProt P09616).
Response: 100 to 1000 nM

Request: Under hemolysin alpha from Staphylococcus aureus (Staphylococcus aureus, UniProt P09616), report IC50 for Cc1cccc(-c2ccc(NS(=O)(=O)c3cc4[nH]c(=O)c(=O)[nH]c4cc3C)cc2Cl)c1
Response: < 30 nM

Request: Recall the reported IC50 of CC(C)c1cc2[nH]c(=O)c(=O)[nH]c2cc1S(=O)(=O)Nc1ccc(Br)c(Cl)c1 on hemolysin alpha from Staphylococcus aureus (Staphylococcus aureus, UniProt P09616) and write it down.
Response: 100 to 1000 nM

Request: Quote IC50 with test system hemolysin alpha from Staphylococcus aureus (Staphylococcus aureus, UniProt P09616) for CCc1cc2[nH]c(=O)c(=O)[nH]c2cc1S(=O)(=O)Nc1ccc(C2CC2)cc1
Response: 30 to 100 nM

Request: Would you please give the reported IC50 of O=c1[nH]c2cc(F)c(S(=O)(=O)Nc3ccc(C4CC4)cc3)cc2[nH]c1=O with hemolysin alpha from Staphylococcus aureus (Staphylococcus aureus, UniProt P09616)?
Response: 30 to 100 nM

Request: State recorded IC50 with hemolysin alpha from Staphylococcus aureus (Staphylococcus aureus, UniProt P09616), entry Cc1cc(NS(=O)(=O)c2cc3[nH]c(=O)c(=O)[nH]c3cc2F)ccc1-c1ccccc1 , no comment.
Response: < 30 nM

Request: Enter measured IC50, system hemolysin alpha from Staphylococcus aureus (Staphylococcus aureus, UniProt P09616), for the compound shown: Cc1cc2[nH]c(=O)c(=O)[nH]c2cc1S(=O)(=O)Nc1ccc(C#N)cc1
Response: 1000 to 3500 nM

Request: Look up and report measured IC50 (hemolysin alpha from Staphylococcus aureus (Staphylococcus aureus, UniProt P09616)) for the following compound: Cc1cc2[nH]c(=O)c(=O)[nH]c2cc1S(=O)(=O)Nc1cc(C)c(-c2cn[nH]c2)c(C)c1
Response: 1000 to 3500 nM

Request: Enter IC50 (test system hemolysin alpha from Staphylococcus aureus (Staphylococcus aureus, UniProt P09616)) for Cc1ccccc1-c1ccc(NS(=O)(=O)c2cc3[nH]c(=O)c(=O)[nH]c3cc2C)cc1
Response: 100 to 1000 nM

Request: Output reported IC50 of the compound O=c1[nH]c2cc(F)c(S(=O)(=O)Nc3ccc(-c4ccsc4)c(Cl)c3)cc2[nH]c1=O on hemolysin alpha from Staphylococcus aureus (Staphylococcus aureus, UniProt P09616).
Response: 100 to 1000 nM
